Exercise: state measured viability, T/C for each of the compounds provided.
system: 817829-284-R-J1-PDC complex spheroid viability; experiment: Anticancer human tumor 817829-284-R-J1-PDC patient-derived colon adenocarcinoma cell line growth inhibition [POLQ]; settings: second compound 0.316 µM; first compound 0.1 µM; stronger effect = lower value
A number alone suffices; assume %.

Inquiry: Return viability, T/C for the following compound: COc1ccc([C@@H](O)c2cc(-c3ncnc4cc(N5CCOCC5)ccc34)c(F)cc2Cl)nn1 + Cc1cccc(N(C)C(=O)C2C(O)CCN2c2nc(C)cc(C(F)(F)F)c2C#N)c1
Reply text: 74.6

Inquiry: Please give the documented viability, T/C of CC[C@@]1(O)C(=O)OCc2c1cc1n(c2=O)Cc2cc3c(CN(C)C)c(O)ccc3nc2-1 + Nc1ccc(C#CCN(C(=O)Cc2ncc(C(F)(F)F)cc2C(F)(F)F)c2ccc(F)cc2)nn1
Reply text: 17.9

Inquiry: Give me measured viability, T/C, please, for this compound: C=CCn1c(=O)c2cnc(Nc3ccc(N4CCN(C)CC4)cc3)nc2n1-c1cccc(C(C)(C)O)n1 + Nc1ccc(C#CCN(C(=O)Cc2ncc(C(F)(F)F)cc2C(F)(F)F)c2ccc(F)cc2)nn1
Reply text: 78

Inquiry: Item COc1cc(C2c3cc4c(cc3C(OC3OC5COC(C)OC5C(O)C3O)C3COC(=O)C23)OCO4)cc(OC)c1O (stereo not given) + Nc1ccc(C#CCN(C(=O)Cc2ncc(C(F)(F)F)cc2C(F)(F)F)c2ccc(F)cc2)nn1 : provide viability, T/C
Reply text: 38.7

Inquiry: Name the recorded viability, T/C of the compound listed here: CNCc1ccc(-c2[nH]c3cc(F)cc4c3c2CCNC4=O)cc1 + COC1C(OC(N)=O)C(O)C(Oc2ccc3c(O)c(NC(=O)c4ccc(O)c(CC=C(C)C)c4)c(=O)oc3c2C)OC1(C)C
Reply text: 108

---

tested on: 817829-284-R-J1-PDC complex spheroid viability; assay: Anticancer human tumor 817829-284-R-J1-PDC cell line growth inhibition [POLQ]; conditions: second compound 0.1 µM; first compound 0.316 µM; stronger effect = lower value;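 further: spheroids exposed to compounds for 7 days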;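 on viability, T/C: 100% = DMSO vehicle-treated spheroids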
Kindly state viability, T/C for each of the entries shown.
Form entry: value (%) — number only.

Inquiry: Look up and report measured viability, T/C (817829-284-R-J1-PDC complex spheroid viability) for the following compound: CC1COCCN1c1cc(-c2ccnn2C)c2ccnc(-c3ccn[nH]3)c2n1 (stereo not drawn) + COC1C(OC(N)=O)C(O)C(Oc2ccc3c(O)c(NC(=O)c4ccc(O)c(CC=C(C)C)c4)c(=O)oc3c2C)OC1(C)C
Reply text: 4.68

Inquiry: # return viability, T/C for COc1cc2cc(C(=O)CCC(=O)O)sc2cc1OC + Nc1ccc(C#CCN(C(=O)Cc2ncc(C(F)(F)F)cc2C(F)(F)F)c2ccc(F)cc2)nn1 , test system: 817829-284-R-J1-PDC complex spheroid viability
Reply text: 101

Inquiry: Enter measured viability, T/C, system 817829-284-R-J1-PDC complex spheroid viability, for the compound shown: C=CCn1c(=O)c2cnc(Nc3ccc(N4CCN(C)CC4)cc3)nc2n1-c1cccc(C(C)(C)O)n1 + COC1C(OC(N)=O)C(O)C(Oc2ccc3c(O)c(NC(=O)c4ccc(O)c(CC=C(C)C)c4)c(=O)oc3c2C)OC1(C)C
Reply text: 32.3

---

system: 817829-284-R-J1-PDC complex spheroid viability; experiment: Anticancer human tumor 817829-284-R-J1-PDC cell line growth inhibition [POLQ]; settings: curve of first compound; second compound 1 µM;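 further: spheroids exposed to compounds for 7 days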
MEASUREMENT TYPE: pIC50
In plain terms, pIC50 is the concentration in mol/L turned into minus its base-10 logarithm.

Inquiry: Input Cn1ncnc1[C@H]1c2n[nH]c(=O)c3cc(F)cc(c23)N[C@@H]1c1ccc(F)cc1 + Cc1cccc(N(C)C(=O)C2C(O)CCN2c2nc(C)cc(C(F)(F)F)c2C#N)c1 , output reported pIC50.
Reply text: 8.18

Inquiry: Entry Cn1ncnc1[C@H]1c2n[nH]c(=O)c3cc(F)cc(c23)N[C@@H]1c1ccc(F)cc1 + Nc1ccc(C#CCN(C(=O)Cc2ncc(C(F)(F)F)cc2C(F)(F)F)c2ccc(F)cc2)nn1 needs its pIC50 filled in; supply it.
Reply text: 7.43

Inquiry: Assign pIC50 to the following record: CCc1cc2c(N3CCc4c(cc(Cn5ccnc5)cc4-c4cn(C)nc4C(F)(F)F)C3=O)cc(C)nc2c(OC)n1 + COC1C(OC(N)=O)C(O)C(Oc2ccc3c(O)c(NC(=O)c4ccc(O)c(CC=C(C)C)c4)c(=O)oc3c2C)OC1(C)C
Reply text: 5.85

Inquiry: Give the reported value of pIC50 for this record: CCCS(=O)(=O)Nc1ccc(F)c(C(=O)c2c[nH]c3ncc(-c4ccc(Cl)cc4)cc23)c1F + Nc1ccc(C#CCN(C(=O)Cc2ncc(C(F)(F)F)cc2C(F)(F)F)c2ccc(F)cc2)nn1
Reply text: 5.43

Inquiry: Look up pIC50 of O=c1[nH]cc(F)c(=O)[nH]1 + Nc1ccc(C#CCN(C(=O)Cc2ncc(C(F)(F)F)cc2C(F)(F)F)c2ccc(F)cc2)nn1 and report it.
Reply text: 5.80

Inquiry: Name the recorded pIC50 of the compound listed here: CC(C)n1c(=O)n(C)c2cnc3cc(F)c(-c4ccc(OCCCN5CCCCC5)nc4)cc3c21 + Nc1ccc(C#CCN(C(=O)Cc2ncc(C(F)(F)F)cc2C(F)(F)F)c2ccc(F)cc2)nn1
Reply text: 5.19

Inquiry: Give the reported pIC50 for this compound. COc1cc(C2c3cc4c(cc3C(OC3OC5COC(C)OC5C(O)C3O)C3COC(=O)C23)OCO4)cc(OC)c1O (stereo unspecified) + COC1C(OC(N)=O)C(O)C(Oc2ccc3c(O)c(NC(=O)c4ccc(O)c(CC=C(C)C)c4)c(=O)oc3c2C)OC1(C)C
Reply text: 7.11

Inquiry: Return the recorded pIC50 value; entry: CNCc1ccc(-c2[nH]c3cc(F)cc4c3c2CCNC4=O)cc1 + Cc1cccc(N(C)C(=O)C2C(O)CCN2c2nc(C)cc(C(F)(F)F)c2C#N)c1
Reply text: 5.57

Inquiry: State its pIC50 for this compound: COc1cc(C2c3cc4c(cc3C(OC3OC5COC(C)OC5C(O)C3O)C3COC(=O)C23)OCO4)cc(OC)c1O (stereo unspecified) + Cc1cccc(N(C)C(=O)C2C(O)CCN2c2nc(C)cc(C(F)(F)F)c2C#N)c1
Reply text: 7.31

---

test system: 817829-284-R-J1-PDC complex spheroid viability; assay: Anticancer human tumor 817829-284-R-J1-PDC cell line growth inhibition [POLQ]; details: second compound 10 µM; first compound 0.316 µM; active = viability on the fitted dose curve at most 10% of control; inactive = the rest;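 further: spheroids exposed to compounds for 7 days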
Answer with one of the outcomes YES = active, NO = inactive

Inquiry: Identify the outcome logged in this assay for the compound shown: O=c1[nH]cc(F)c(=O)[nH]1 + COC1C(OC(N)=O)C(O)C(Oc2ccc3c(O)c(NC(=O)c4ccc(O)c(CC=C(C)C)c4)c(=O)oc3c2C)OC1(C)C
Reply text: NO

Inquiry: Would you mind telling me which call this test gave CC1COCCN1c1cc(-c2ccnn2C)c2ccnc(-c3ccn[nH]3)c2n1 (stereo not drawn) + Cc1cccc(N(C)C(=O)C2C(O)CCN2c2nc(C)cc(C(F)(F)F)c2C#N)c1 ?
Reply text: YES

Inquiry: What outcome does the record of this test show for COc1cc2cc(C(=O)CCC(=O)O)sc2cc1OC + COC1C(OC(N)=O)C(O)C(Oc2ccc3c(O)c(NC(=O)c4ccc(O)c(CC=C(C)C)c4)c(=O)oc3c2C)OC1(C)C ?
Reply text: NO

---

system: 817829-284-R-J1-PDC complex spheroid viability; test: Anticancer human tumor 817829-284-R-J1-PDC cell line growth inhibition [POLQ]; conditions: second compound 0.0316 µM; first compound 0.1 µM; active = viability on the fitted dose curve at most 10% of control; inactive = the rest;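 further: spheroids exposed to compounds for 7 days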
Would you mind answering with one of these outcomes? true (1) for active, false (0) for inactive

Inquiry: Outcome? COc1cccc(OCCCN)c1-c1cc(Nc2cnc(C#N)cn2)n[nH]1 + Nc1ccc(C#CCN(C(=O)Cc2ncc(C(F)(F)F)cc2C(F)(F)F)c2ccc(F)cc2)nn1
Reply text: true (1)

Inquiry: Outcome logged for O=C(Nc1ccc(O)c(NS(=O)(=O)c2ccc(F)cc2)c1)c1ccc(-c2ccccc2)cc1 + Nc1ccc(C#CCN(C(=O)Cc2ncc(C(F)(F)F)cc2C(F)(F)F)c2ccc(F)cc2)nn1 in this assay:
Reply text: false (0)

Inquiry: What classification did COc1cc2cc(C(=O)CCC(=O)O)sc2cc1OC + Nc1ccc(C#CCN(C(=O)Cc2ncc(C(F)(F)F)cc2C(F)(F)F)c2ccc(F)cc2)nn1 end up with in this test?
Reply text: false (0)

---

test system: 817829-284-R-J1-PDC complex spheroid viability; assay: Anticancer human tumor 817829-284-R-J1-PDC cell line growth inhibition [POLQ]; details: second compound 0.316 µM; first compound 0.316 µM; stronger effect = lower value;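 further: spheroids exposed to compounds for 7 days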;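 on viability, T/C: 100% = DMSO vehicle-treated spheroids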
Provide the recorded viability, T/C for the entries that follow.

Inquiry: Entry CC1COCCN1c1cc(-c2ccnn2C)c2ccnc(-c3ccn[nH]3)c2n1 (stereo unspecified) + COC1C(OC(N)=O)C(O)C(Oc2ccc3c(O)c(NC(=O)c4ccc(O)c(CC=C(C)C)c4)c(=O)oc3c2C)OC1(C)C needs its viability, T/C filled in; supply it.
Reply text: 5.3%

Inquiry: Specify reported viability, T/C for the compound shown: CCc1cc2c(N3CCc4c(cc(Cn5ccnc5)cc4-c4cn(C)nc4C(F)(F)F)C3=O)cc(C)nc2c(OC)n1 + Nc1ccc(C#CCN(C(=O)Cc2ncc(C(F)(F)F)cc2C(F)(F)F)c2ccc(F)cc2)nn1
Reply text: 71.7%

Inquiry: Output measured viability, T/C for this item: COc1cccc(OCCCN)c1-c1cc(Nc2cnc(C#N)cn2)n[nH]1 + Nc1ccc(C#CCN(C(=O)Cc2ncc(C(F)(F)F)cc2C(F)(F)F)c2ccc(F)cc2)nn1
Reply text: 4.07%

Inquiry: For the compound CCc1cc2c(N3CCc4c(cc(Cn5ccnc5)cc4-c4cn(C)nc4C(F)(F)F)C3=O)cc(C)nc2c(OC)n1 + Cc1cccc(N(C)C(=O)C2C(O)CCN2c2nc(C)cc(C(F)(F)F)c2C#N)c1 , give its reported viability, T/C.
Reply text: 94%

Inquiry: Respond only with viability, T/C recorded for CC(C)n1c(=O)n(C)c2cnc3cc(F)c(-c4ccc(OCCCN5CCCCC5)nc4)cc3c21 + Cc1cccc(N(C)C(=O)C2C(O)CCN2c2nc(C)cc(C(F)(F)F)c2C#N)c1
Reply text: 94.4%

Inquiry: Answer with the recorded viability, T/C of C=CCn1c(=O)c2cnc(Nc3ccc(N4CCN(C)CC4)cc3)nc2n1-c1cccc(C(C)(C)O)n1 + Nc1ccc(C#CCN(C(=O)Cc2ncc(C(F)(F)F)cc2C(F)(F)F)c2ccc(F)cc2)nn1 only.
Reply text: 36.1%

Inquiry: Find the measured viability, T/C of CC1COCCN1c1cc(C2(O)CC3CCC(C2)O3)c2cnn(-c3ccn[nH]3)c2n1 (stereo unspecified) + COC1C(OC(N)=O)C(O)C(Oc2ccc3c(O)c(NC(=O)c4ccc(O)c(CC=C(C)C)c4)c(=O)oc3c2C)OC1(C)C and report it.
Reply text: 5.16%

Inquiry: Return the recorded viability, T/C value; entry: O=C(Nc1ccc(O)c(NS(=O)(=O)c2ccc(F)cc2)c1)c1ccc(-c2ccccc2)cc1 + Cc1cccc(N(C)C(=O)C2C(O)CCN2c2nc(C)cc(C(F)(F)F)c2C#N)c1
Reply text: 95.9%

Inquiry: Tell me measured viability, T/C for COc1cccc(OCCCN)c1-c1cc(Nc2cnc(C#N)cn2)n[nH]1 + Cc1cccc(N(C)C(=O)C2C(O)CCN2c2nc(C)cc(C(F)(F)F)c2C#N)c1 please.
Reply text: 4.39%

Inquiry: Hello, please tell me recorded viability, T/C for this one: COc1cc2cc(C(=O)CCC(=O)O)sc2cc1OC + COC1C(OC(N)=O)C(O)C(Oc2ccc3c(O)c(NC(=O)c4ccc(O)c(CC=C(C)C)c4)c(=O)oc3c2C)OC1(C)C
Reply text: 88.9%

Inquiry: Give the reported value of viability, T/C for this record: CCc1c2c(nc3ccc(O)cc13)-c1cc3c(c(=O)n1C2)COC(=O)[C@]3(O)CC + COC1C(OC(N)=O)C(O)C(Oc2ccc3c(O)c(NC(=O)c4ccc(O)c(CC=C(C)C)c4)c(=O)oc3c2C)OC1(C)C
Reply text: 5.95%
